B1: LCOR (parent)
chain: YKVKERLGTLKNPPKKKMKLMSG

variants of: B1; assay: protein stability index of a GFP-peptide fusion (GPS, HEK-293T) (PSI 1-6); higher = more stable; conditions: c terminus: native;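 also: lentivirally expressed fusions sorted by FACS into six bins by GFP to DsRed ratio, PSI derived from sequencing read proportions per bin multiplied by bin number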
Would you mind telling me the reported protein stability index of each entry?
Answers are plain numbers.

Here is how some variants turned out for protein stability index.
Macromolecule Sequence	protein stability index
YKVKERLGTLKNPPKKTMKLMSG [K17T]	1.76
YKVKERLGKLKNPPKKKMKLMSG [T9K]	2.06
YKVKERLGTLQNPPKKKMKLMSG [K11Q]	1.44
YKVKERAGTLKNPPKKKMKLMSG [L7A]	2.49
YKVKERLGTLKNPPKIKMKLMSG [K16I]	1.39

Below are some variants; for each one, tell me its protein stability index.
1. YKVKERLGTLMNPPKKKMKLMSG [K11M]
2. YKVKERLGTLKNPPKKHMKLMSG [K17H]
3. YKVKERLTTLKNPPKKKMKLMSG [G8T]
4. YKVKERTGTLKNPPKKKMKLMSG [L7T]
5. YKVKERLGVLKNPPKKKMKLMSG [T9V]
6. YKVSERLGTLKNPPKKKMKLMSG [K4S]
7. YKVKERLGTLKNPPKKKMKLMSM [G23M]

1: 3.04; 2: 2.02; 3: 2.16; 4: 1.85; 5: 2.35; 6: 1.93; 7: 3.85

Below are some variants; for each one, tell me its protein stability index.
1. YKVKERLGTRKNPPKKKMKLMSG [L10R]
2. YKVKERLGTLKNPGKKKMKLMSG [P14G]

1: 2.23; 2: 3.94

All values here come from the supplement of paper PMC10567573.
